target: Neutrophil elastase (Homo sapiens)

{"SMILES NOTATION": "CN(Cc1ccc(C(=O)O)cc1)C(=O)[C@@H]1N2C(=O)[C@H](NC(=O)C(F)(F)F)[C@H]2S(=O)(=O)C1(C)C", "UNITS SYMBOL": "M⁻¹ s⁻¹", "K obs / 1": 5400}
{"SMILES NOTATION": "CN(C(=O)C(F)(F)F)[C@H]1C(=O)N2[C@@H](C(=O)OCc3ccc(C(=O)O)cc3)C(C)(C)S(=O)(=O)[C@H]12", "UNITS SYMBOL": "M⁻¹ s⁻¹", "K obs / 1": 5700}
{"SMILES NOTATION": "CC1(C)[C@H](C(=O)OCc2ccc(C(=O)O)cc2)N2C(=O)[C@H](NC(=O)C(F)(F)F)[C@H]2S1(=O)=O", "UNITS SYMBOL": "M⁻¹ s⁻¹", "K obs / 1": 89000}

Every entry's value here was drawn from ChEMBL document CHEMBL1127140.
